Assay: recombinant UMI read abundance after kanamycin selection (control-corrected) (log10(CPM+1)); higher = more efficient recombination; extreme values may be limits of the assay; sequences stand for … in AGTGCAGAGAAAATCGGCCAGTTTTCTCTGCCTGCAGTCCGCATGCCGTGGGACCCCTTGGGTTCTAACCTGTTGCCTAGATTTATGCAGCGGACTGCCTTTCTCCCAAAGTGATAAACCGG…AGGTTGGTTTCACT; site = the 11-nt donor;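 note: IS621 bridge recombinase in Escherichia coli cells against a fixed T5 target plasmid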
Measurement Label: recombinant UMI read abundance (log10)

INSERT INTO results (chain_sequence, numeric_result) VALUES
  ('ACTAGAACATGGACCGGTTTTCCCGGTAATCCGTATTTGAG (site ACTAGGACTCT)', 0.407),
  ('GAATGGACATGGACCGGTTTTCCCGGTAATCCGTATTTGCA (site GAATGGGCTTG)', 2.41),
  ('CGCTTGGCATGGACCGGTTTTCCCGGTAATCCGTATTTGCT (site CGCTTGGCTAG)', 0),
  ('TTCAAGTCATGGACCGGTTTTCCCGGTAATCCGTATTTGTA (site TTCAAGTCTTA)', 0.621),
  ('GTGGAAACATGGACCGGTTTTCCCGGTAATCCGTATTTGCA (site GTGGAAACTTG)', 2.37),
  ('ACACATCCATGGACCGGTTTTCCCGGTAATCCGTATTTGAC (site ACACAGCCTGT)', 0.424),
  ('TAGCTAGCATGGACCGGTTTTCCCGGTAATCCGTATTTGTA (site TAGCTAGCTTC)', 0.0102),
  ('AACTCAGCATGGACCGGTTTTCCCGGTAATCCGTATTTGGG (site AGCTCAGCTCC)', 0.00784),
  ('GTGCATGCATGGACCGGTTTTCCCGGTAATCCGTATTTGGT (site GTGCATTCTAC)', 0),
  ('TAGCCTCCATGGACCGGTTTTCCCGGTAATCCGTATTTGGT (site TAGCCTGCTAC)', 0.0298),
  ('GAGCTGCCATGGACCGGTTTTCCCGGTAATCCGTATTTGCG (site GAGCTGCCTCG)', 0.232),
  ('GAAGTCACATGGACCGGTTTTCCCGGTAATCCGTATTTGGG (site TAAGTCACTCC)', 0.221),
  ('CCGCTACCATGGACCGGTTTTCCCGGTAATCCGTATTTGCT (site CGGCTACCTAG)', 0),
  ('AGTTCAGCATGGACCGGTTTTCCCGGTAATCCGTATTTGGC (site AGTTCAGCTGC)', 0.972),
  ('CCTGGTGCATGGACCGGTTTTCCCGGTAATCCGTATTTGAT (site CCGGGTGCTAT)', 0.00642),
  ('TGGTTCCCATGGACCGGTTTTCCCGGTAATCCGTATTTGTG (site TGGTTCCCTCA)', 0.0117),
  ('ACACGAACATGGACCGGTTTTCCCGGTAATCCGTATTTGGC (site ACACGAACTGG)', 0),
  ('CTCTTGGCATGGACCGGTTTTCCCGGTAATCCGTATTTGGA (site CGCTTGGCTTC)', 0.00297);
